biological target: MDM2-p53 interaction (Homo sapiens (Human), UniProt Q00987); details: read-out: MDM2 % inhibition @0.0010
Sequence (Q00987 whole entry): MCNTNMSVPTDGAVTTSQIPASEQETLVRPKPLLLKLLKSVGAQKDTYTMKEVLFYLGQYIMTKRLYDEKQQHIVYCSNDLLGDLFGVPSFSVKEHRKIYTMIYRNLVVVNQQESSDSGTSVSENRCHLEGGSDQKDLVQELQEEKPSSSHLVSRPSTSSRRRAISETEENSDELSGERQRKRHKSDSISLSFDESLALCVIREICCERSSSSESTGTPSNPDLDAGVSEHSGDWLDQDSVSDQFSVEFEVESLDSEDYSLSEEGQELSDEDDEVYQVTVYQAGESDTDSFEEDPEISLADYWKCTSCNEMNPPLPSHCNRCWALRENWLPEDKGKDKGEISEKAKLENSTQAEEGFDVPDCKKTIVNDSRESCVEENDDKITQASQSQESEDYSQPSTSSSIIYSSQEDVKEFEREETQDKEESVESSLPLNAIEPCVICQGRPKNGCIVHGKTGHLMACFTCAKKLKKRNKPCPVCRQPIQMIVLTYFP
parameter: inhibition at 0.001 µM (%)

Examples with answers:
{"molecule": "CCC(O)(c1cc(F)c2c(c1)C(=O)N(Cc1ncc(C#N)cn1)[C@@]2(OCC1(C#N)CC1)c1ccc(Cl)cc1)c1cn(C)cn1 (single isomer, unassigned) [Example 462]", "inhibition at 0.001 µM / %": 80}
{"molecule": "CC[C@@](O)(c1cc(F)c2c(c1)C(=O)N(Cc1ncc(C#N)cn1)[C@@]2(O[C@H]1C[C@@H](O)C1)c1ccc(Cl)cc1)C1(F)CCOCC1 [Example 505]", "inhibition at 0.001 µM / %": 60}

a = CCC(O)(c1cc(F)c2c(c1)C(=O)N(Cc1ncc(Cl)cn1)[C@@]2(O[C@H]1CCOC1)c1ccc(Cl)cc1)C1CCN(C)CC1 (single isomer, unassigned) [Example 449]
b = CCC(O)(c1cc(F)c2c(c1)C(=O)N(Cc1ncc(C#N)cn1)[C@@]2(OC)c1ccc(Cl)cc1)C1(F)CCN(C)CC1 (single isomer, unassigned) [Example 575]
Task item: Consider a and b . Which of these has its inhibition at 0.001 µM at a higher number? Mark your selection by writing its label.
Reply: a
(a: 78%, b: 38%)

I = CCC(O)(c1cc(F)c2c(c1)C(=O)N(Cc1ccc(Cl)cn1)[C@@]2(O[C@H]1CCOC1)c1ccc(Cl)cc1)C1(F)CCNCC1 (single isomer, unassigned) [Example 548]
II = CCC(O)(CN1CCNCC1)c1cc(F)c2c(c1)C(=O)N(Cc1ncc(Cl)cn1)[C@@]2(OCC1(F)COC1)c1ccc(Cl)cc1 (single isomer, unassigned) [Example 539]
Task item: Select the item whose inhibition at 0.001 µM value is smaller, choosing between I and II . Mark your selection by writing its label.
Reply: II

Values from patent US11236047B2
